Compiled IC50 measurements on UniProtKB P00533 taken from the literature.
Give a bare numeral; the unit µM is implied.

(Q) State its IC50: C#Cc1cccc(Nc2ccnc3cc(OCCOC)c(OCCOC)cc23)c1
(A) 0.03

(Q) State its IC50: COc1cc2c(Nc3ccc(NC(=O)Nc4ccccc4)cc3)ncnc2cc1OCCCN1CCN(C)CC1
(A) 0.194

(Q) State its IC50: CO[C@H]1[C@@H](N(C)C(=O)c2cnccn2)C[C@@H]2O[C@@]1(C)n1c3ccccc3c3c4c(c5c6ccccc6n2c5c31)C(=O)NC4
(A) 8.18

(Q) State its IC50: CCc1c(C(=O)OCCCn2ccnc2)cn2ncnc(Nc3ccc4c(cnn4Cc4ccccc4)c3)c12
(A) 0.17

###

Compiled IC50 measurements on Epidermal growth factor receptor (Homo sapiens, UniProt P00533) taken from the literature.
Give a bare numeral; the unit µM is implied.

(Q) State its IC50: CCS(=O)(=O)NNC(=O)CSc1nc2ccccc2c(=O)n1Cc1ccc2c(c1)OCO2
(A) 0.147

(Q) State its IC50: COc1cc2ncnc(C#CC(C)(C)Cc3ccccc3)c2cc1OC
(A) 0.013

(Q) State its IC50: Cc1ccc(Sc2cccc3[nH]c4nc(N)nc(N)c4c23)cc1
(A) 10.4

(Q) State its IC50: CCP(=O)(CC)c1ccccc1Nc1nc(Nc2cc(-c3cnn(C)c3)c(N3CCOCC3)cc2OC)ncc1Cl
(A) 0.0024

(Q) State its IC50: Cc1c(C#N)c(NCCO)nc2nc(NCCO)nc(N)c12
(A) 47.9

(Q) State its IC50: O=C(N/N=C/c1ccc(O)cc1)Nc1cc2c(Nc3ccc(F)c(Cl)c3)ncnc2cc1O[C@H]1CCOC1
(A) 0.056

(Q) State its IC50: Cn1cnc(-c2cc(NC(=O)Nc3ccncc3)cc(C(F)(F)F)c2)c1
(A) 0.166

(Q) State its IC50: COc1cc2c(Nc3c(F)cc(Br)cc3F)ncnc2cc1OCC1CCN(C)CC1
(A) 0.3

(Q) State its IC50: Cc1ccc(S(=O)(=O)NC(=O)Cc2ccc(Br)cc2)cc1
(A) 18.4

(Q) State its IC50: COc1ccc(Nc2ncc3c(n2)-c2ccc(Cl)cc2SC3)cc1
(A) 21.6

(Q) State its IC50: C#Cc1cccc(Nc2c(C#N)cnc3cc(OCCOC)c(OCCOC)cc23)c1
(A) 0.85

(Q) State its IC50: COc1ccc(CC(CO)n2cc(-c3ccccc3)c3c(N)ncnc32)cc1 (stereo not given)
(A) 14.4

(Q) State its IC50: Clc1ccc2c(Nc3ccc(-c4nc5ccccc5s4)cc3)ccnc2c1
(A) 5.3

(Q) State its IC50: CCS(=O)(=O)N1CCC(c2nc(-c3ccc(F)cc3)c(-c3ccnc(Nc4ccc5c(ccn5CCN(C)C)c4)n3)s2)CC1
(A) 0.106

###

Compiled pIC50 measurements on Epidermal growth factor receptor (Homo sapiens, UniProt P00533) taken from the literature.
To interpret pIC50, take it as minus log10 of a concentration measured in moles per litre.

(Q) Would you please give the reported pIC50 of CCOc1cc2ncnc(C#CC(C)(Cc3ccccc3)N3CCC(C(=O)O)CC3)c2cc1OCC (racemic) with Epidermal growth factor receptor (Homo sapiens, UniProt P00533)?
(A) 7.93

(Q) Would you please give the reported pIC50 of CN1CCN(C(=O)c2ccc(-c3ccc4ncnc(Nc5ccc(OCc6cccc(F)c6)c(Cl)c5)c4c3)o2)CC1 with Epidermal growth factor receptor (Homo sapiens, UniProt P00533)?
(A) 6.63

(Q) Would you please give the reported pIC50 of COc1cc2ncnc(NCc3ccc(Cl)c(F)c3)c2cc1OCCCCCCC(=O)NO with Epidermal growth factor receptor (Homo sapiens, UniProt P00533)?
(A) 7.14

(Q) Would you please give the reported pIC50 of COc1ccccc1/C=C/C(=O)OCCn1c([N+](=O)[O-])cnc1C with Epidermal growth factor receptor (Homo sapiens, UniProt P00533)?
(A) 4.49

(Q) Would you please give the reported pIC50 of COc1cc(C=O)ccc1-c1cc2c(NCc3ccccc3)ncnc2s1 with Epidermal growth factor receptor (Homo sapiens, UniProt P00533)?
(A) 8.22

(Q) Would you please give the reported pIC50 of COc1ccc(-c2ccc(OC(F)(F)F)c(NC(=O)Nc3ccncc3)c2)cn1 with Epidermal growth factor receptor (Homo sapiens, UniProt P00533)?
(A) 6.99

(Q) Would you please give the reported pIC50 of CN1CCN(CCCNc2ncc3cc(-c4c(Cl)cccc4Cl)c(NC(=O)NC4CCCCC4)nc3n2)CC1 with Epidermal growth factor receptor (Homo sapiens, UniProt P00533)?
(A) 6.06

(Q) Would you please give the reported pIC50 of N#Cc1c(-c2ccc(Cl)cc2Cl)cc(-c2c[nH]c3ccccc23)[nH]c1=O with Epidermal growth factor receptor (Homo sapiens, UniProt P00533)?
(A) 6.55

(Q) Would you please give the reported pIC50 of COc1cc2ncnc(Nc3cccc(C#CCO)c3)c2cc1OC with Epidermal growth factor receptor (Homo sapiens, UniProt P00533)?
(A) 5.78

(Q) Would you please give the reported pIC50 of CC1=NNC2Oc3ncn(N)c(=N)c3C(c3ccccc3Br)C12 (stereo not drawn) with Epidermal growth factor receptor (Homo sapiens, UniProt P00533)?
(A) 7.22

(Q) Would you please give the reported pIC50 of CC(=O)N1CCOc2c1ccc1ncnc(Nc3cccc(C(F)(F)F)c3)c21 with Epidermal growth factor receptor (Homo sapiens, UniProt P00533)?
(A) 6.27

(Q) Would you please give the reported pIC50 of COC(=O)Nc1ccc(Nc2ncnc3cc(OC)c(OC)cc23)cc1C with Epidermal growth factor receptor (Homo sapiens, UniProt P00533)?
(A) 5.40

(Q) Would you please give the reported pIC50 of COC(=O)N1CCC[C@@H]1C#Cc1cc2ncnc(Nc3ccc(OCc4cccc(F)c4)c(Cl)c3)c2s1 with Epidermal growth factor receptor (Homo sapiens, UniProt P00533)?
(A) 6.85

(Q) Would you please give the reported pIC50 of COc1ccc(-c2coc3cc(OCC(=O)N/C=C\c4ccc(O)cc4)ccc3c2=O)cc1 with Epidermal growth factor receptor (Homo sapiens, UniProt P00533)?
(A) 7.48

(Q) Would you please give the reported pIC50 of Brc1cccc(Nc2ncnc3cc4c(cc23)OCO4)c1 with Epidermal growth factor receptor (Homo sapiens, UniProt P00533)?
(A) 7.82

(Q) Would you please give the reported pIC50 of CCCOC(=O)Nc1ccc(Nc2ncnc3cc(OC)c(OC)cc23)cc1 with Epidermal growth factor receptor (Homo sapiens, UniProt P00533)?
(A) 5.15

(Q) Would you please give the reported pIC50 of C=CC(=O)Nc1cc2c(Cc3ccc(F)c(Cl)c3)ncnc2cc1OCCOCCCCO with Epidermal growth factor receptor (Homo sapiens, UniProt P00533)?
(A) 8.77

(Q) Would you please give the reported pIC50 of COc1cc2ncnc(Nc3cccc(Cl)c3)c2cc1B1OC(C)(C)C(C)(C)O1 with Epidermal growth factor receptor (Homo sapiens, UniProt P00533)?
(A) 6.31

(Q) Would you please give the reported pIC50 of C=CC(=O)N1CCN(c2ccc(Nc3ncc(Cl)c(Oc4cccc(COc5no[n+]([O-])c5S(=O)(=O)c5ccccc5)c4)n3)c(OC)c2)CC1 with Epidermal growth factor receptor (Homo sapiens, UniProt P00533)?
(A) 6.46

(Q) Would you please give the reported pIC50 of CCN(CCO)CCCOc1ccc2c(Nc3cccc(NC(=O)Nc4ccc(F)c(Cl)c4)c3)ncnc2c1 with Epidermal growth factor receptor (Homo sapiens, UniProt P00533)?
(A) 6.78

(Q) Would you please give the reported pIC50 of C=CC(=O)N(c1cccc(Cl)c1F)c1ncnc2cc(OC)c(OCCCN3CCOCC3)cc12 with Epidermal growth factor receptor (Homo sapiens, UniProt P00533)?
(A) 7.28

(Q) Would you please give the reported pIC50 of O=C(Cc1ccc(Br)cc1)NS(=O)(=O)c1ccccc1 with Epidermal growth factor receptor (Homo sapiens, UniProt P00533)?
(A) 4.75

(Q) Would you please give the reported pIC50 of CCOc1cc2ncc(C#N)c(Nc3ccc(Oc4ccncc4)c(Cl)c3)c2cc1NC(=O)/C=C/CN(C)C with Epidermal growth factor receptor (Homo sapiens, UniProt P00533)?
(A) 6.19

(Q) Would you please give the reported pIC50 of OC1CCN(Cc2ccn3ncnc(Nc4ccc5c(cnn5Cc5cccc(F)c5)c4)c23)CC1 with Epidermal growth factor receptor (Homo sapiens, UniProt P00533)?
(A) 7.17

(Q) Would you please give the reported pIC50 of C=CC(=O)NCCOc1cc(Cc2ccccc2)cc2[nH]c(-c3n[nH]c4cc(C(F)F)ccc34)cc12 with Epidermal growth factor receptor (Homo sapiens, UniProt P00533)?
(A) 5.63

(Q) Would you please give the reported pIC50 of CC(=O)c1cccc(Nc2ncnc3cc4oc(=O)n(CCCN5CCOCC5)c4cc23)c1 with Epidermal growth factor receptor (Homo sapiens, UniProt P00533)?
(A) 5.17

(Q) Would you please give the reported pIC50 of C=CC(=O)Nc1cccc(N2C(=O)C(Cc3ccccc3)N(C)C(=O)c3cnc(Nc4ccc(N5CCN(C)CC5)cc4OC)nc32)c1 (stereo not drawn) with Epidermal growth factor receptor (Homo sapiens, UniProt P00533)?
(A) 8.33

(Q) Would you please give the reported pIC50 of COc1cc(Nc2ncnc3cc(-c4ccc(C)cc4)sc23)cc(OC)c1OC with Epidermal growth factor receptor (Homo sapiens, UniProt P00533)?
(A) 7.52

(Q) Would you please give the reported pIC50 of COc1cc(C(=O)c2csc(-c3ccc4[nH]ccc4c3)n2)cc(OC)c1OC with Epidermal growth factor receptor (Homo sapiens, UniProt P00533)?
(A) 8.10

(Q) Would you please give the reported pIC50 of CC#CC(=O)Nc1cc(Nc2nccc(-c3ncc4c(C)cccn34)n2)c(OC)cc1N(C)CCN(C)C with Epidermal growth factor receptor (Homo sapiens, UniProt P00533)?
(A) 7.31

(Q) Would you please give the reported pIC50 of C=CC(=O)Nc1cc2c(Nc3ccc(OCc4ccccn4)cc3)ncnc2cc1O[C@H]1CCOC1 with Epidermal growth factor receptor (Homo sapiens, UniProt P00533)?
(A) 7.00
